# test_target: T1, human MuSK (human, UniProt O15146 24-495)
# T1 construct: Recombinant protein coated on ELISA plates (R&D Systems cat. 10189-MK) or on the Biacore chip; also called human muscle-specific tyrosine protein kinase; full length human MuSK
# T1 sequence: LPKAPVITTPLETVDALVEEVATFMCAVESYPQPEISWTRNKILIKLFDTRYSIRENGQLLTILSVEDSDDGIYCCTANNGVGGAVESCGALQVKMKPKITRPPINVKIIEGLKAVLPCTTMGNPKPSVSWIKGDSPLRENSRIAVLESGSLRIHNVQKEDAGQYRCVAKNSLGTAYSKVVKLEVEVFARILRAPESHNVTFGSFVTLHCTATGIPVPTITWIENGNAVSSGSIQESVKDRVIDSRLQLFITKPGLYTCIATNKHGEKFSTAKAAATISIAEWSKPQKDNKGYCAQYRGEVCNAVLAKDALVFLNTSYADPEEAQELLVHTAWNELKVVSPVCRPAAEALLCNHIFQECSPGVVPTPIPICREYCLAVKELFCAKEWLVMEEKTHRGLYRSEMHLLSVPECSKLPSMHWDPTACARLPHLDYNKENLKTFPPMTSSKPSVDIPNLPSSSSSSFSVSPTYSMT
# experiment_description: Biacore T200, off rate at pH 5.5 against pH 7.4
List of Ratio pH 5.5/7.4 of off rate values.
Write no unit; give the number alone.

- binder: "X3 Fab (Fab, V domains shown, Fab format) VH: EVQLVESGGGLVQPGGSLRLSCAASGFTISSSSIHWVRQAPGKGLEWVASISSSSGYTYYADSVKGRFTISADTSKNTAYLQMNSLRAEDTAVYYCARSWYEMWMSGYFGFDYWGQGTLVTVSS VL: DIQMTQSPSSLSASVGDRVTITCRASQSVSSAVAWYQQKPGKAPKLLIYSASSLYSGVPSRFSGSRSGTDFTLTISSLQPEDFATYYCQQSSSSLITFGQGTKVEIK"
  observable: "Ratio pH 5.5/7.4 of off rate"
  numeric_value: 3.5
- binder: "X9 Fab (Fab, V domains shown, Fab format) VH: EVQLVESGGGLVQPGGSLRLSCAASGFTFSSSSIHWVRQAPGKGLEWVASIYSSSGSTYYADSVKGRFTISADTSKNTAYLQMNSLRAEDTAVYYCARSGGEFYITSYYGMDYWGQGTLVTVSS VL: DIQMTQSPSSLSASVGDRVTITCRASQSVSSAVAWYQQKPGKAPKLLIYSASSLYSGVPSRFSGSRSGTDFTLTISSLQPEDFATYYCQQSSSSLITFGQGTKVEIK"
  observable: "Ratio pH 5.5/7.4 of off rate"
  numeric_value: 1.4
- binder: "3B2g2m1 Fab (Fab, V domains shown, Fab format) VH: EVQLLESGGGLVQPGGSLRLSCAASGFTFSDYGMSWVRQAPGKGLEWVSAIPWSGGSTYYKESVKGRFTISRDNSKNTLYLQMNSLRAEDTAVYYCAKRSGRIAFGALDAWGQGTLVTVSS VL: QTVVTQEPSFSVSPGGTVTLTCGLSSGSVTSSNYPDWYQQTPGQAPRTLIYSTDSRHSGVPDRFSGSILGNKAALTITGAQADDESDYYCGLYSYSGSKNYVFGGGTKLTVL"
  observable: "Ratio pH 5.5/7.4 of off rate"
  numeric_value: 6.1

Asked: Consider the binder shown here: 3B2 Fab (Fab, V domains shown, Fab format; also called Fab 3B2) VH: ELQLVESGGGLVQPGGSLRLSCAASGFTFDDYGMSWVRQAPGKGLEWVSAIPWNGGSTYYKESVKGRFTISRDNAKKTLYLQMNSLKSEDTAVYYCAKRSGRIAFGALDAWGQGTLVTVSS VL: QAVVTQEPSLSVSPGGTVTLTCGLSSGSVTSSNYPDWYQQTPGQAPRGLIYSTDSRHSGVPSRFSGSISGNKAALTITGAQSEDEADYYCGLYMYSGSKNYVFGGGTKLTVL What is its recorded Ratio pH 5.5/7.4 of off rate?
Given back: 5.8

Asked: Consider the binder shown here: X2m4 Fab (Fab, V domains shown, Fab format) VH: EVQLVESGGGLVQPGGSLRLSCAASGFTVSSSSIHWVRQAPGKGLEWVASISSSYGSTSYADSVKGRFTISADTSKNTAYLQMNSLRAEDTAVYYCARSEGDRYVSGYSGLDYWGQGTLVTVSS VL: DIQMTQSPSSLSASVGDRVTITCRASQSVSSAVAWYQQKPGKAPKLLIYSASSLYSGVPSRFSGSRSGTDFTLTISSLQPEDFATYYCQQSGVWLITFGQGTKVEIK What is its recorded Ratio pH 5.5/7.4 of off rate?
Given back: 0.7

Asked: Consider the binder shown here: X17 Fab (Fab, V domains shown, Fab format) VH: EVQLVESGGGLVQPGGSLRLSCAASGFTISYSSIHWVRQAPGKGLEWVASIYSSSGSTYYADSVKGRFTISADTSKNTAYLQMNSLRAEDTAVYYCARGDHGYYVFGYLGMDYWGQGTLVTVSS VL: DIQMTQSPSSLSASVGDRVTITCRASQSVSSAVAWYQQKPGKAPKLLIYSASSLYSGVPSRFSGSRSGTDFTLTISSLQPEDFATYYCQQSYKPGALITFGQGTKVEIK What is its recorded Ratio pH 5.5/7.4 of off rate?
Given back: 7.7
